Where these numbers come from: patent US11753407B2

- Tested on: SMN2 minigene mRNA (SMN2-A minigene) in HEK293H cells
- Procedure Summary: SMN2 minigene mRNA splicing RT-qPCR assay in cultured cells
- Format: cell-based, human
- Measurement Parameters: Homo sapiens, HEK293-H; concentration increasing full length SMN2 mRNA 1.5-fold relative to vehicle-treated cells; HEK293H cells with SMN2-A minigene, 24 hours, 7-point concentration data; read-out: EC1.5x for production of full length SMN2 mRNA
Here, each record is paired with measured EC (1.5-fold increase) data.
Measured Property: EC (1.5-fold increase)

>>> result("Cc1cn2nc(-c3cc(=O)n4cc(N5CCCNCC5)ccc4n3)cc2c(C)n1")
"< 0.1 µM"
>>> result("Cc1cn2nc(-c3cc(=O)n4cc(N5CC[C@@H](CN)C5)ccc4n3)cc2c(C)n1")
"1 to 3 µM"
>>> result("Cc1cn2cc(-c3cc(=O)n4cc(N5CCN(CCOCCO)[C@@H](C)C5)ccc4n3)cc(F)c2n1")
"< 0.1 µM"
>>> result("Cc1nc2cc(-c3cc(=O)n4cc(N5CCCN(C)CC5)ccc4n3)ccc2s1")
"0.1 to 0.3 µM"
>>> result("CCN1CC=C(c2ccc3nc(-c4cc(F)c5nc(C)oc5c4)cc(=O)n3c2)CC1")
"< 0.1 µM"
>>> result("Cc1cn2nc(-c3cc(=O)n4cc(N5CC(N6CCCCC6)C5)ccc4n3)cc2c(C)n1")
"1 to 3 µM"
>>> result("COc1ccc(-c2cc(=O)n3cc(C4=CCNCC4)ccc3n2)cc1OC")
"< 0.1 µM"
>>> result("CCN1CC=C(c2ccc3nc(-c4ccc5nc(C)cn5c4)cc(=O)n3c2)CC1")
"< 0.1 µM"
>>> result("Cc1nc2ccc(-c3cc(=O)n4cc(N5CCN6CCC[C@H]6C5)ccc4n3)cc2o1")
"0.1 to 0.3 µM"
>>> result("CCOc1cc(-c2cc(=O)n3cc(N4CCN[C@@H](C)C4)ccc3n2)ccc1OC")
"1 to 3 µM"
>>> result("CCc1nc(C)cn2nc(-c3cc(=O)n4cc(N5CCC(N(C)C)CC5)ccc4n3)cc12")
"< 0.1 µM"
>>> result("CCN1CC=C(c2ccc3nc(-c4ccc5nc(C)sc5c4)cc(=O)n3c2)CC1")
"0.1 to 0.3 µM"
>>> result("Cc1ccc(-c2cc(=O)n3cc(N4CCN[C@@H](C)C4)ccc3n2)cc1F")
"1 to 3 µM"
>>> result("Cc1cn2nc(-c3cc(=O)n4cc(C5=CCN(C6COC6)CC5)ccc4n3)cc2c(C)n1")
"0.1 to 0.3 µM"
>>> result("CCN1CCN(c2ccc3nc(-c4cc(CO)c5nc(C)cn5c4)cc(=O)n3c2)CC1")
"< 0.1 µM"
>>> result("Cc1cc(C2CCN(C)CC2)cn2c(=O)cc(-c3ccc4nn(C)cc4c3)nc12")
"< 0.1 µM"
>>> result("CCc1nc(C)cn2nc(-c3cc(=O)n4cc(N5CCN(CC)CC5)cc(C)c4n3)cc12")
"< 0.1 µM"
>>> result("COc1ccc(-c2cc(=O)n3cc(N4CCC(N(C)C)CC4)cc(C)c3n2)cc1F")
"< 0.1 µM"
>>> result("Cc1nc2cc(-c3cc(=O)n4cc(N5CCC(N)CC5)ccc4n3)ccc2s1")
"0.1 to 0.3 µM"
>>> result("Cc1cn2cc(-c3cc(=O)n4cc(N5CCN(C(C)C)[C@H](C)C5)ccc4n3)cc(Cl)c2n1")
"< 0.1 µM"
>>> result("COc1ccc(-c2cc(=O)n3cc(N4CCN[C@@H](C)C4)ccc3c2)cc1F")
"0.3 to 1 µM"
>>> result("CSc1ccc(-c2cc(=O)n3cc(N4CCNCC4)ccc3n2)cc1F")
"0.3 to 1 µM"
>>> result("Cc1cn2cc(-c3cc(=O)n4cc(N5CCN(C(C)C)CC5)ccc4n3)cc(Cl)c2n1")
"< 0.1 µM"
>>> result("Cc1cn2nc(-c3cc(=O)n4cc(C5=CCN(C)CC5)ccc4n3)cc2cn1")
"< 0.1 µM"
>>> result("CCc1nc(C)cn2nc(-c3cc(=O)n4cc(N5CCN6CCC[C@H]6C5)ccc4n3)cc12")
"< 0.1 µM"
>>> result("CCCNC1(C)CCN(c2ccc3nc(-c4cc5c(C)nc(C)cn5n4)cc(=O)n3c2)CC1")
"< 0.1 µM"
>>> result("COc1ccc(-c2cc(=O)n3cc(N4CCNCC4)ccc3n2)cc1OC")
"< 0.1 µM"
>>> result("COc1ccc(-c2cc(=O)n3cc(N4CCNCC4)ccc3n2)cc1C(F)(F)F")
"0.1 to 0.3 µM"
>>> result("Cc1nc2c(F)cc(-c3cc(=O)n4cc(N5CCNCC5)ccc4n3)cc2o1")
"< 0.1 µM"
>>> result("COc1ccc(-c2cc(=O)n3cc(N4CCN[C@@H](C)C4)ccc3n2)cc1C(F)(F)F")
"0.3 to 1 µM"
>>> result("Cc1nc2ccc(-c3cc(=O)n4nc(C5CCNCC5)ccc4n3)cc2o1")
"< 0.1 µM"
>>> result("Cc1cn2nc(-c3cc(=O)n4cc(N5CCN6CCC[C@H]6C5)ccc4n3)cc2c(C)n1")
"0.1 to 0.3 µM"
>>> result("Cc1cn2cc(-c3cc(=O)n4cc(C5CCN(C)CC5)ncc4n3)ccc2n1")
"0.1 to 0.3 µM"

----------
- System: SMN2 minigene mRNA (SMN2-A minigene) in HEK293H cells
- Procedure Summary: SMN2 minigene mRNA splicing RT-qPCR assay in cultured cells
- Format: cell-based, human
- Measurement Parameters: Homo sapiens, HEK293-H; concentration increasing full length SMN2 mRNA 1.5-fold relative to vehicle-treated cells; HEK293H cells with SMN2-A minigene, 24 hours, 7-point concentration data; read-out: EC1.5x for production of full length SMN2 mRNA
Attribute: EC (1.5-fold increase)
Measured Property: EC (1.5-fold increase)

>>> result("Cc1csc(-c2cc(=O)n3cc(N4CCN[C@@H](C)C4)ccc3n2)n1")
"0.3 to 1 µM"
>>> result("Cc1cn2cc(-c3cc(=O)n4cc(N5CCN(CCO)[C@@H](C)C5)ccc4n3)cc(Cl)c2n1")
"< 0.1 µM"
>>> result("COc1ccc(-c2cc(=O)n3cc(N4CC[C@H](N)C4)ccc3n2)cc1F")
"0.3 to 1 µM"
>>> result("C[C@@H]1CN(c2ccc3nc(-c4ccc5c(c4)OCO5)cc(=O)n3c2)C[C@H](C)N1")
"3 to 30 µM"
>>> result("Cc1cn2nc(-c3cc(=O)n4cc(N5CCN[C@@H](C)C5)ccc4n3)cc2cn1")
"< 0.1 µM"
>>> result("Cc1cn2nc(-c3cc(=O)n4cc(C5CCNCC5)cc(C)c4n3)cc2c(C)n1")
"< 0.1 µM"
>>> result("COc1ccc(-c2cc(=O)n3cc(N4CCNCC4)ccc3n2)cc1Cl")
"0.1 to 0.3 µM"
>>> result("Cc1cn2cc(-c3cc(=O)n4cc(N5CCNCC5)ccc4n3)ccc2n1")
"< 0.1 µM"

----------
melting point reference
Measured Property: melting point

>>> result("O=c1cc(-c2ccc(Cl)cc2)nc2ccc(N3CCNCC3)cn12")
"207 to 212 °C"
>>> result("COc1c(F)cc(-c2cc(=O)n3cc(N4CCN[C@@H](C)C4)ccc3n2)cc1F")
"182 to 184 °C"
>>> result("CCN(CC)C1CCN(c2cc(C)c3nc(-c4ccc(OC)c(OC)c4)cc(=O)n3c2)CC1")
"149 to 155 °C"
>>> result("CCN1CCN(c2ccc3nc(-c4cc(F)c5nc(C)oc5c4)cc(=O)n3c2)CC1")
"212 to 214 °C"
>>> result("COc1ncc(-c2cc(=O)n3cc(N4CCNCC4)ccc3n2)cc1F")
"166 to 170 °C"
>>> result("COc1ncc(-c2cc(=O)n3cc(N4C[C@@H](C)N[C@@H](C)C4)ccc3n2)cc1F")
"160 to 165 °C"
>>> result("CCc1nc(C)cn2nc(-c3cc(=O)n4cc(N5CCN(CCO)[C@H](C)C5)ccc4n3)cc12")
"238 to 241 °C"
>>> result("Cc1cn2nc(-c3cc(=O)n4cc(N5CCC(N(C)C)CC5)ccc4n3)cc2cn1")
"240 to 242 °C"
>>> result("O=c1cc(-c2ccccc2F)nc2ccc(N3CCNCC3)cn12")
"142 to 146 °C"
>>> result("COc1ccc(-c2cc(=O)n3cc(N4CCNCC4)ccc3n2)cc1C#N")
"191 to 197 °C"
>>> result("C[C@@H]1CN(c2ccc3nc(-c4ccc5c(c4)OCCO5)cc(=O)n3c2)C[C@H](C)N1")
"247 to 250 °C"
>>> result("COc1ccc(-c2cc(=O)n3cc(N4CCN(C)CC4)ccc3n2)cc1OC")
"183 to 185 °C"
>>> result("Cc1cc(C2CCN(CCO)CC2)cn2c(=O)cc(-c3ccc4c(cnn4C)c3)nc12")
"225 to 228 °C"
>>> result("CCOc1ccc(-c2cc(=O)n3cc(N4CCNCC4)ccc3n2)cc1F")
"180 to 186 °C"
>>> result("CN1CC=C(c2ccc3nc(-c4ccc5c(cnn5C)c4)cc(=O)n3c2)CC1")
"148 to 150 °C"
>>> result("COc1ccc(-c2cc(=O)n3cc(N(C)[C@@H]4CCN(C)C4)ccc3n2)cc1F")
"143 to 149 °C"
>>> result("Cc1cn2nc(-c3cc(=O)n4cc(C5=CCNCC5)ccc4n3)cc2cn1")
"260 to 265 °C"
>>> result("CCCN(C)C1CC=C(c2ccc3nc(-c4ccc(OC)c(OC)c4)cc(=O)n3c2)CC1 (stereo not shown)")
"116 to 118 °C"
>>> result("Cc1cn2cc(-c3cc(=O)n4cc(C5CCN(C(C)C)CC5)ccc4n3)cc(C)c2n1")
"242 to 244 °C"
>>> result("Cc1cn2cc(-c3cc(=O)n4cc(N5CCNCC5)ccc4n3)cc(F)c2n1")
"282 to 288 °C"
>>> result("CCc1nc(C)cn2nc(-c3cc(=O)n4cc(C5CCN(CCO)CC5)cc(C)c4n3)cc12")
"210 to 216 °C"
>>> result("Cc1cn2cc(-c3cc(=O)n4cc(N5CCN6CCC[C@H]6C5)ccc4n3)cc(Cl)c2n1")
"269 to 275 °C"
>>> result("O=c1cc(-c2cccnc2)nc2ccc(N3CCNCC3)cn12")
"175 to 178 °C"
>>> result("COc1ccc(-c2cc(=O)n3cc(C4CCN(C)CC4)cc(C)c3n2)cc1F")
"198 to 203 °C"
>>> result("COc1ccc(-c2cc(=O)n3cc(N4C[C@H]5CNC[C@H]5C4)ccc3n2)cc1OC")
"286 to 290 °C"
>>> result("CN1CCC(c2ccc3nc(-c4ccc5nn(C)cc5c4)cc(=O)n3n2)CC1")
"260 to 262 °C"
>>> result("Cc1cn2nc(-c3cc(=O)n4cc(C5CCN(C(C)C)CC5)ccc4n3)cc2c(C)n1")
"196 to 198 °C"
>>> result("Cc1cn2cc(-c3cc(=O)n4cc(C5CCN(C(C)C)CC5)ncc4n3)cc(Cl)c2n1")
"243 to 245 °C"
>>> result("COc1ccc(-c2cc(=O)n3cc(OC4CCNCC4)ccc3n2)cc1OC")
"221 to 224 °C"
>>> result("COc1ccc(-c2cc(=O)n3cc(N4CCCNCC4)cc(C)c3n2)cc1OC")
"160 to 177 °C"
>>> result("Cc1cn2cc(-c3cc(=O)n4cc(N5CCNCC5)ccc4n3)cc(C)c2n1")
"270 to 274 °C"
>>> result("Cc1cn2nc(-c3cc(=O)n4cc(N5CC[C@@H](CN(C)C)C5)ccc4n3)cc2c(C)n1")
"239 to 241 °C"
>>> result("Cc1nc2cc(-c3cc(=O)n4cc(N5CCNCC5)ccc4n3)ccc2s1")
"228 to 230 °C"
>>> result("Cc1cn2nc(-c3cc(=O)n4cc(N5CC[C@H](CN(C)C)C5)ccc4n3)cc2c(C)n1")
"229 to 231 °C"
